These measurements were taken from paper PMC9254699.

- Target: TGF-β1 (Homo sapiens, UniProt P01137)
- Sequence (P01137 279-390): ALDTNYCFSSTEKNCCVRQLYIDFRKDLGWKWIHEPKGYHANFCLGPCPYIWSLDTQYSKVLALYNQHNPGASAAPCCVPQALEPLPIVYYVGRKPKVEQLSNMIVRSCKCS
- Procedure summary: 125I-TGF-β1 sequestering in 10% serum by peptide-conjugated microspheres
No end group written: not given here.
Endpoint label: Kd

Supply recorded Kd for CIAEIDLIPRDRPF (also: conjugated to PEG microspheres) [RIPΔ] here. ~211 nM
